# target of assay: SbOMT1 (Sorghum bicolor)
# Construct: full-length open reading frames for all three OMTs were overexpressed in E. coli as N-terminal polyhistidine fusions; polyhistidine (pET15b) (N); made in house; host or cells: E. coli BL21/DE3
# Sequence (A8QW52 1-376): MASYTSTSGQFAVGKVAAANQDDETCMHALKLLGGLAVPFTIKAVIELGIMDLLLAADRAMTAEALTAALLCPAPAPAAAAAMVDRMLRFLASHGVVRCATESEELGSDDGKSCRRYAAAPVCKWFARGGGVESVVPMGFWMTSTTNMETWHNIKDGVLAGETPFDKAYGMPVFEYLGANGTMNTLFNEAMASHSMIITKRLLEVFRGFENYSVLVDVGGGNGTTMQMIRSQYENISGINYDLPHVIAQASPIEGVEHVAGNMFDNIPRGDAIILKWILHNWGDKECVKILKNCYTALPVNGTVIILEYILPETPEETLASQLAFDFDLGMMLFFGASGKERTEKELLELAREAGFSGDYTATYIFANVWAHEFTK
# test description: OMT enzymatic assay (radiometric, 14C-SAM) with recombinant SbOMT1
# Format: biochemical
# recorded conditions: relative to eugenol = 100%; 30 min at 30° C.
Is Relative Activity (%) of Recombinant SbOMT1 at least 1%? Then 1 (yes). If not, 0 (no).

>  <sample smiles>
CCCCCCCCCCCCCCCc1cc(O)cc(O)c1

>  <group label>
0 (no)

$$$$
>  <sample smiles>
CCCCCCc1cc(O)cc(O)c1

>  <group label>
0 (no)

$$$$
>  <sample smiles>
COc1ccc(O)cc1

>  <group label>
1 (yes)

$$$$
>  <sample smiles>
COc1cc(/C=C/C(=O)O)ccc1O

>  <group label>
1 (yes)

$$$$
>  <sample smiles>
COc1ccccc1O

>  <group label>
1 (yes)

$$$$
>  <sample smiles>
CCCCCCCCCc1cc(O)cc(O)c1

>  <group label>
0 (no)

$$$$
>  <sample smiles>
O=C(O)/C=C/c1ccc(O)cc1

>  <group label>
0 (no)

$$$$
>  <sample smiles>
CCCCCCCc1cc(O)cc(O)c1

>  <group label>
0 (no)

$$$$
>  <sample smiles>
COc1cccc(O)c1

>  <group label>
1 (yes)

$$$$
>  <sample smiles>
C=CCc1ccc(O)c(OC)c1

>  <group label>
1 (yes)

$$$$
>  <sample smiles>
CCCCc1cc(O)cc(O)c1

>  <group label>
1 (yes)

$$$$
>  <sample smiles>
CCCc1cc(O)cc(O)c1

>  <group label>
1 (yes)

$$$$
>  <sample smiles>
COc1cc(C)cc(O)c1

>  <group label>
1 (yes)

$$$$
>  <sample smiles>
Cc1cc(O)cc(O)c1

>  <group label>
1 (yes)

$$$$

----------
# target of assay: SbOMT3 (Sorghum bicolor, UniProt A8QW53, DUP296-296)
# Construct: full-length open reading frames for all three OMTs were overexpressed in E. coli as N-terminal polyhistidine fusions; polyhistidine (pET15b) (N); made in house; host or cells: E. coli BL21/DE3
# Sequence (A8QW53 other isoform, or with tags, fused parts or gaps DUP296-296): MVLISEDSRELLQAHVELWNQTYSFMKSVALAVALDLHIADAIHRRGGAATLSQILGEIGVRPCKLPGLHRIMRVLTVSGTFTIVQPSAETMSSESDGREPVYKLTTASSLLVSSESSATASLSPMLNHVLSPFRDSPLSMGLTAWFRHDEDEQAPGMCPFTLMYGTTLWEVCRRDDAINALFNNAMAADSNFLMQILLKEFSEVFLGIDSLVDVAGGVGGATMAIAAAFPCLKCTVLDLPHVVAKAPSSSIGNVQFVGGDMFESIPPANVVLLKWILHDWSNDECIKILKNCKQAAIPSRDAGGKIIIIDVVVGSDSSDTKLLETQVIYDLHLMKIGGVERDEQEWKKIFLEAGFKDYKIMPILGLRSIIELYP
# Assay type: biochemical
# recorded conditions: relative to 5-n-pentyl-resorcinol = 100%; 30 min at 30° C.
Reported values of Relative Activity (%) of Recombinant SbOMT3 for individual entries
metric: Relative Activity (%) of Recombinant SbOMT3

>  <sample smiles>
COc1cc(C)cc(O)c1

>  <target of assay>
SbOMT3 (Sorghum bicolor, UniProt A8QW53, DUP296-296)

>  <measurement unit>
%

>  <value reported>
3.5

$$$$
>  <sample smiles>
CCCCc1cc(O)cc(O)c1

>  <target of assay>
SbOMT3 (Sorghum bicolor, UniProt A8QW53, DUP296-296)

>  <measurement unit>
%

>  <value reported>
42.0

$$$$
>  <sample smiles>
CCCc1cc(O)cc(O)c1

>  <target of assay>
SbOMT3 (Sorghum bicolor, UniProt A8QW53, DUP296-296)

>  <measurement unit>
%

>  <value reported>
11.8

$$$$
>  <sample smiles>
C=CCc1ccc(O)c(OC)c1

>  <target of assay>
SbOMT3 (Sorghum bicolor, UniProt A8QW53, DUP296-296)

>  <measurement unit>
%

>  <value reported>
3.2

$$$$
>  <sample smiles>
CCCCCCc1cc(O)cc(O)c1

>  <target of assay>
SbOMT3 (Sorghum bicolor, UniProt A8QW53, DUP296-296)

>  <measurement unit>
%

>  <value reported>
79.4

$$$$
>  <sample smiles>
CCCCCCCc1cc(O)cc(O)c1

>  <target of assay>
SbOMT3 (Sorghum bicolor, UniProt A8QW53, DUP296-296)

>  <measurement unit>
%

>  <value reported>
27.2

$$$$
>  <sample smiles>
Cc1cc(O)cc(O)c1

>  <target of assay>
SbOMT3 (Sorghum bicolor, UniProt A8QW53, DUP296-296)

>  <measurement unit>
%

>  <value reported>
4.5

$$$$

----------
# target of assay: SbOMT3 (Sorghum bicolor, UniProt A8QW53, DUP296-296)
# Construct: full-length open reading frames for all three OMTs were overexpressed in E. coli as N-terminal polyhistidine fusions; polyhistidine (pET15b) (N); made in house; host or cells: E. coli BL21/DE3
# Type: biochemical
# recorded conditions: relative to 5-n-pentyl-resorcinol = 100%; 30 min at 30° C.
Items are presented alongside their recorded Relative Activity (%) of Recombinant SbOMT3.
metric: Relative Activity (%) of Recombinant SbOMT3

>  <sample smiles>
Oc1cccc(O)c1

>  <value reported>
4.1

$$$$
>  <sample smiles>
CCCCCCCCCc1cc(O)cc(O)c1

>  <value reported>
3.3

$$$$
>  <sample smiles>
CCCCCCCCCCCCCCCc1cc(O)cc(O)c1

>  <value reported>
5.0

$$$$
>  <sample smiles>
O=C(O)/C=C/c1ccc(O)cc1

>  <value reported>
3.5

$$$$
>  <sample smiles>
COc1ccc(O)cc1

>  <value reported>
3.3

$$$$
>  <sample smiles>
COc1cccc(O)c1

>  <value reported>
3.2

$$$$
>  <sample smiles>
CCCCCc1cc(O)cc(O)c1

>  <value reported>
100

$$$$
>  <sample smiles>
COc1cc(/C=C/C(=O)O)ccc1O

>  <value reported>
3.5

$$$$
>  <sample smiles>
COc1ccccc1O

>  <value reported>
3.2

$$$$
>  <sample smiles>
C=CC/C=C\C/C=C\CCCCCCCc1cc(O)cc(O)c1

>  <value reported>
14.9

$$$$

Data origin: patent US7732666B1
